- TGT: T1, Cynomolgus CD3εδ Fc heterodimer (Cy CD3ε Fc / CD3δ Fc-HIS) (cynomolgus, UniProt Q95LI8 22-100)
- T1 chain 1: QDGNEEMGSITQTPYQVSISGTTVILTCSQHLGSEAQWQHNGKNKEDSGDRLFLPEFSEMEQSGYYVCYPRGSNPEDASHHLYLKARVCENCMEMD
- T1 chain 2: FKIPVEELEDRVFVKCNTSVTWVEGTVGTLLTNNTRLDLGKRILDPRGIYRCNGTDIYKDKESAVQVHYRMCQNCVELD
- MEASUREMENT NOTES: BLI (Octet), IgG on AHC sensor, pH 6.0
Please respond with reported koff for every item in the list.
One number for each entry, in s⁻¹.

Use these answered entries as a reference point.
LAD9955_P01_G02 (ADI-57439) (antibody, V domains shown, IgG; also called Ab170) VH: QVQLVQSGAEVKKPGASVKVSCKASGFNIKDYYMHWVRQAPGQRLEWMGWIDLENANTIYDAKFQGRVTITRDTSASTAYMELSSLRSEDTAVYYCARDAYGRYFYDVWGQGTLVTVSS VL: DIVMTQSPDSLAVSLGERATINCKSSQSLLHARTGKNHLAWYQQKPGQPPKLLIYWASTRESGVPDRFSGSGSGTDFTLTISSLQAEDVAVYYCKQSYSRRTFGGGTKVEIK; 0.0282
SAD10319_P04_E11 (ADI-57338) (antibody, V domains shown, IgG; also called Ab37) VH: QVQLVQSGAEVKKPGASVKVSCKASGYTFTDYNMHWVRQAPGQRLEWMGWINPYTGYTKYSQKFQGRVTITRDTSASTAYMELSSLRSEDTAVYYCARDHYGHYFYDVWGQGTLVTVSS VL: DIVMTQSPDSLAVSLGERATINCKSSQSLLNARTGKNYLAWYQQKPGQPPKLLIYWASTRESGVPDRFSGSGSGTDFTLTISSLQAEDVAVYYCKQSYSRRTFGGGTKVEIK; 0.0239
SAD10319_P06_G09 (ADI-57431) (antibody, V domains shown, IgG; also called Ab161) VH: QVQLVQSGAEVKKPGASVKVSCKASGYTFESYDMHWVRQAPGPRLEWMGWIDAGTGATTYSQKFQGRVTITRDTSASTAYMELSSLRSEDTAVYYCARDAYHHYFYDVWGQGTLVTVSS VL: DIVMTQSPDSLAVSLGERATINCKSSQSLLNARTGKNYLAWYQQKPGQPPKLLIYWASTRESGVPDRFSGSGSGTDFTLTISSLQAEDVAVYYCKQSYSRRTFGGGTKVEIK; 0.00258
SAD10319_P02_F05 (ADI-57317) (antibody, V domains shown, IgG; also called Ab5) VH: QVQLVQSGAEVKKPGASVKVSCKASGYTFNNYAMHWVRQAPGQRLEWMGWIDAGTGNTDYSQKFQGRVTITRDTSASTAYMELSSLRSEDTAVYYCARDAHHRYFYDVWGQGTLVTVSS VL: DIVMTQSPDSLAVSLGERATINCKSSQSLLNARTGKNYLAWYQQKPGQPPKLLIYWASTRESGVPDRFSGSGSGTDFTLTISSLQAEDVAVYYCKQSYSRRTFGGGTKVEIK; 0.0262
SAD10319_P04_B11 (ADI-57335) (antibody, V domains shown, IgG; also called Ab33) VH: QVQLVQSGAEVKKPGASVKVSCKASGYTFGSYDMHWVRQAPGQRLEWMGWIDAGTGATKYSQKFQGRVTITRDTSASTAYMELSSLRSEDTAVYYCARDAHGHYFYDVWGQGTLVTVSS VL: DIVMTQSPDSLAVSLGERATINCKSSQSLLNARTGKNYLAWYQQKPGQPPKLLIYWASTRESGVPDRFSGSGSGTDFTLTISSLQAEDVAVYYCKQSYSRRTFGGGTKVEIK; 0.00273
SAD10320_P01_C03 (ADI-57355) (antibody, V domains shown, IgG; also called Ab62) VH: QVQLVQSGAEVKKPGASVKVSCKASGFNIKDYYMHWVRQAPGQRLEWMGWIDLENANTIYDAKFQGRVTITRDTSASTAYMELSSLRSEDTAVYYCARDAYGHSFYDVWGQGTLVTVSS VL: DIVMTQSPDSLAVSLGERATINCKSSQSLLNARTGKNYLAWYQQKPGQPPKLLIYWASTRESGVPDRFSGSGSGTDFTLTISSLQAEDVAVYYCKQSYHWRTFGGGTKVEIK; 0.0195

# batch: return koff for each of the 3 binders below
1. SAD10319_P05_G01 (ADI-57413) (antibody, V domains shown) VH: QVQLVQSGAEVKKPGASVKVSCKASGYTFNNYAMHWVRQAPGQSLEWMGWIDAGTGNTDYSQKFQGRVTITRDTSASTAYMELSSLRSEDTAVYYCARDAHHRYFYDVWGQGTLVTVSS VL: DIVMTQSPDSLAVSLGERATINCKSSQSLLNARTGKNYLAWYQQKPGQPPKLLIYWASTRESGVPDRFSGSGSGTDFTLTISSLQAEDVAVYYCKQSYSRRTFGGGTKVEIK
2. SAD10318_P03_G09 (ADI-57287) (antibody, V domains shown, IgG; also called Ab209) VH: QVQLVQSGAEVKKPGASVKVSCKASGFNIKDYYMHWVRQAPGQRLEWMGWIDLENANTIYDAKFQGRVTITRDTSASTAYMELSSLRSEDTAVYYCARDHYGHYFYDVWGQGTLVTVSS VL: DIVMTQSPDSLAVSLGERATINCKSSQSLLNAHTGHNYLAWYQQKPGQPPKLLIYWASTRESGVPDRFSGSGSGTDFTLTISSLQAEDVAVYYCHQSYSHRTFGGGTKVEIK
3. SAD10320_P04_D10 (ADI-57384) (antibody, V domains shown, IgG; also called Ab105) VH: QVQLVQSGAEVKKPGASVKVSCEASGFNIKDYYMHWVRQAPGQRPEWMGWIDLENANTIYDAKFQGRVTITRDTSASTAYMELSSLRSEDTAVYYCARDAYGHVFYDVWGQGTLVTVSS VL: DIVMTQSPDSLAVSLGERATINCKSSQSLLNARTGKNYLAWYQQKPGQPPKLLIYWASTRESGVPDRFSGSGSGTDFTLTISSLQAEDVAVYYCKQSYLHRTFGGGTKVEIK

Found:
[0.0236, 0.00559, 0.0171]

Lookup: Return reported koff; argument: SAD10320_P01_F02 (ADI-57350) (antibody, V domains shown, IgG; also called Ab56) VH: QVQLVQSGAEVKKPGASVKVSCKASGFNIKDYYMHWVRQAPGQRLERMGWIDLENANTIYDAKFQGRVTITRDTSASTAYMELSSLRSEDTAVYYCARDAYGHTFYDVWGQGTLVTVSS VL: DIVMTQSPDSLAVSLGERATINCKSSQSLLNARTGKNYLAWYQQKPGQPPKLLIYWASTRESGVPDRFSGSGSGTDFTLTISSLQAEDVAVYYCKQSYWHRTFGGGTKVEIK
Found: 0.0194

All figures here come from patent US20220380463A1.
